Listed here: items and their measured apparent KD of MS2 coat protein.
Test system: MS2 coat protein
Assay: apparent KD of MS2 coat protein; designed switch direction (-1 OFF switch, 1 ON switch): 1; higher = weaker reporter binding
Conditions: input ligand: FMN 200 uM

item sequence | apparent KD of MS2 coat protein / nM
GGUGGCGAAAGCGACAUGAGGAUCACCCAUGUCAUCGGAGGGCAGGAUAUCCGGCGAAAGCCGAAGGAGAAGGGUCGAAAAGAA [ssng3v2 b] (Eterna round: R96, puzzle: Same State NG 3) | 62.4
GGUGGGUUGCUGCCGGCACAUGAGGAUCACCCAUGUUUUGGGAAGGAUAUGGUCCCUCUUUGGUGCCAGAAGGUCCCGUUGGUG [salish99_SSNG3_r04_714] (Eterna round: R96, puzzle: Same State NG 3) | 691
CCAGGACAUGAGGAUCACCCAUGUGCUUAAUGUGGAGAAUCUCAGGAUAUCAUGAGGAUUACCCAUGAGAAGGGAGAUCCGAGG (Eterna round: R96, puzzle: Same State NG 3) | 437
GGUGGGUUGCUGCCGGCACAUGAGGAUCACCCAUGUUUUGGGAAGGAUAUGGUCCCUCUUUGGUGCCAGAAGGUCCCGUUGGUC [salish99_SSNG3_r04_715] (Eterna round: R96, puzzle: Same State NG 3) | 232
UGGUACAUGGGAGGAUAUCAUGUAGAAACAUGAGGAUCACCCAUGUAGAUGGCCGGUAACCGGAAUGAGAAGGCCCAUGUACCU [JL SSNG1 3.63] (Eterna round: R96, puzzle: Same State NG 2) | 22.7
GAGAGAUGAUUAGGAUAUUCGGUGAUAAUGAUAGAAGAAGGAAUUGACAUGAGGAUCACCCAUGUGGGAAUAAUCCAGAGAGAG [Parity 21 - Jieux - Same State NG 1] (Eterna round: R96, puzzle: Same State NG 1) | 148
CCAAUGUACAAUUUAGAUCUACAUGAGGAUCACCCAUGUACAGAGGAUAUCAGCUCGUGUAGAGCUGAGAAGGCUGAAUUAAUU [SSNG3/3-A4] (Eterna round: R96, puzzle: Same State NG 3) | 117
UAGUUGGUGGUAGGAUAUGUAGGAUAUGGCGAGAGCUAAGCUUGGAAGUCACUUCAGCCAGAAGGACAGAAGGACCAGUAGCUU [pwkr ssNG2 2FMN + F9.10] (Eterna round: R96, puzzle: Same State NG 2) | 105
GAGCCAGUCCGAGGAUAUUCAUAUUAACACAUGAGGAUCACCCAUGUGGGCUCAGAAGAGCCCUGGGAGAAGGCGGACUGGCUC [SS-NG2-LRO16] (Eterna round: R96, puzzle: Same State NG 2) | 16.5
